From: patent US9957271B2

# measurement.target: SIRT1 (Homo sapiens, UniProt Q96EB6)
# protocol: Trp mass spectrometry assay of SIRT1 activity
# Format: biochemical
# setup.conditions: percent maximum fold activation of SIRT1; Trp peptide substrate; read-out: Trp % Fold Act
Assign Emax to each entry below.

Some solved cases for reference:
Cc1cncc(NC(=O)c2c(C)nn3ccc(N4CCC[C@H]4C(F)(F)F)nc23)c1: ≥ 350%
O=C(Nc1cccnn1)c1cnn2ccc(N3CCC(C(F)(F)F)CC3)nc12: ≥ 350%
O=C(Nc1ccccn1)c1cnn2ccc(N3CCC[C@H]3C(F)(F)F)nc12: ≥ 350%
Cc1ncccc1NC(=O)c1cnc2ccc(-c3ccccc3C(F)(F)F)nn12: < 350%
Cc1cc(C)nc(NC(=O)c2cnc3ccc(-c4ccccc4C(F)(F)F)nn23)c1: ≥ 350%
O=C(Nc1cc(-c2cnco2)ccn1)c1cnn2ccc(N3CCC(C(F)(F)F)CC3)nc12: ≥ 350%
O=C(Nc1cccnc1)c1cnc2ccc(-c3ccc(F)c(F)c3F)nn12: < 350%
Cc1cncc(NC(=O)c2cnn3ccc(N4CCC[C@@H]4C(F)(F)F)nc23)c1: ≥ 350%
Cc1nc(NC(=O)c2cnn3ccc(N4CCC[C@@H]4C(F)(F)F)nc23)sc1C: ≥ 350%
O=C(Nc1ccncn1)c1cnn2ccc(N3CCC(C(F)(F)F)CC3)nc12: ≥ 350%

Kindly give each listed record's Emax.
1. C[C@H]1CCCN1c1ccc2ncc(C(=O)Nc3cncc(F)c3)n2n1
2. Cc1ccc(NC(=O)c2cnc3ccc(-c4ccccc4C(F)(F)F)nn23)cn1
3. CS(=O)(=O)c1ccccc1-c1ccc2ncc(C(=O)Nc3cccnc3)n2n1
4. O=C(Nc1cncc(F)c1)c1cnn2ccc(N3CCCC(C(F)(F)F)C3)nc12 (centres unmarked)
5. O=C(Nc1ccc(CN2CCCC2)nc1)c1cnc2ccc(-c3ccccc3C(F)(F)F)nn12
6. Cc1cncc(NC(=O)c2c(C)nn3ccc(N4CCC[C@@H]4C(F)(F)F)nc23)c1
7. O=C(Nc1cccc(CN2CCOCC2)n1)c1cnc2ccc(-c3cccc(Cl)c3F)nn12

["< 350%", "≥ 350%", "< 350%", "≥ 350%", "< 350%", "≥ 350%", "< 350%"]

---

# measurement.target: SIRT1 (Homo sapiens, UniProt Q96EB6)
# protocol: Trp mass spectrometry assay of SIRT1 activity
# Format: biochemical
# setup.conditions: Trp assay; percent maximum fold activation; read-out: Trp % Fold Act
parameter.measured: Emax

O=C(Nc1cnc2ccc(-c3ccccc3Cl)nn12)c1ccccn1: < 350%
Cc1cccc(C(=O)Nc2cnn3ccc(-c4ccccc4OC(F)(F)F)nc23)n1: < 350%
O=C(Nc1cnc2ccc(-c3ccccc3F)nn12)c1nccs1: < 350%
Cc1cccc(NC(=O)c2c(C)nc3c(OC[C@H](O)CO)cc(-c4ccccc4C(F)(F)F)nn23)n1: ≥ 350%

Item `Cc1ccc(NC(=O)c2cnc3ccc(N4CC[C@H](F)C4)nn23)cn1` has what recorded Emax? < 350%

---

# measurement.target: SIRT1 (Homo sapiens, UniProt Q96EB6)
# Sequence (Q96EB6 1-747): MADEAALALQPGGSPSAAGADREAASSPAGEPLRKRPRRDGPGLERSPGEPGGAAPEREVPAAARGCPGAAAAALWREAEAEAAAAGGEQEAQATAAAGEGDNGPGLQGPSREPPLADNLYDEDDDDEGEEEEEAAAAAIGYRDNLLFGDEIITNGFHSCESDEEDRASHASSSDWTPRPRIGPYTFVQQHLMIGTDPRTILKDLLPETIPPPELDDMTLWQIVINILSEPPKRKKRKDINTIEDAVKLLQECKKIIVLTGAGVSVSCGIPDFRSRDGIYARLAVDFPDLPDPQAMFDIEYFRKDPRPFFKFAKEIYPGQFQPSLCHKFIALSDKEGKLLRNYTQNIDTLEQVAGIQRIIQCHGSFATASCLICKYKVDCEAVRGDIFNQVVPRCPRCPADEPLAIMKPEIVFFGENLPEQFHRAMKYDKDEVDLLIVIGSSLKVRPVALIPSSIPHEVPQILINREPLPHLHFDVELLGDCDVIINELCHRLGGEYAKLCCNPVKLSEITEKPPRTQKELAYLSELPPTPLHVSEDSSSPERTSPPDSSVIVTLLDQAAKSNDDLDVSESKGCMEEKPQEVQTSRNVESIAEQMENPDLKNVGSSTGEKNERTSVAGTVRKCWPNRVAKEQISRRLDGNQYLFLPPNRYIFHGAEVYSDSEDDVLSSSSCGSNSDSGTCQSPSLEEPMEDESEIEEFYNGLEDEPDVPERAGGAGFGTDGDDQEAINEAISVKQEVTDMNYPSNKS
# protocol: TAMRA based mass spectrometry assay of SIRT1 activity
# Type: biochemical
# setup.conditions: TAMRA assay; percent maximum fold activation; read-out: TAMRA % Fold Act
Assign Emax to each entry below.

Some solved cases for reference:
Cc1nc2ccc(-c3ccccc3Cl)nn2c1NC(=O)c1cccc(OCC(O)CO)n1 (stereo not drawn): < 350%
Cc1ccnc(NC(=O)c2cnc3ccc(-c4ccccc4C(F)(F)F)nn23)n1: ≥ 350%
Cc1nc2c(C)cc(-c3ccccc3C(F)(F)F)nn2c1C(=O)Nc1ccnc(C(C)(C)C)n1: ≥ 350%
O=C(Nc1cnc2ccc(-c3ccccc3Cl)nn12)c1cccc(N2CCOCC2)n1: ≥ 350%
Cc1cc(OCC(F)(F)F)nc(NC(=O)c2cnc3ccc(-c4ccccc4C(F)(F)F)nn23)n1: ≥ 350%
N#Cc1ccccc1-c1ccc2ncc(C(=O)Nc3ccccn3)n2n1: < 350%
O=C(Nc1cccc(CN2CC[C@@H](F)C2)n1)c1cnc2ccc(-c3ccccc3C(F)(F)F)nn12: ≥ 350%
Cc1nc(C(=O)Nc2c(C)nc3ccc(-c4ccccc4C(F)(F)F)nn23)c(C)s1: ≥ 350%
Cc1nc2ccc(-c3ccccc3C(F)(F)F)nn2c1C(=O)Nc1ccc(Cl)cn1: ≥ 350%
O=C(Nc1cnn2ccc(-c3ccccc3C(F)(F)F)nc12)c1cscn1: ≥ 350%

Kindly give each listed record's Emax.
1. O=C(Nc1cnc2ccc(-c3ccccc3Cl)nn12)c1cccc(OCC(O)CO)n1 (stereo not drawn)
2. O=C(Nc1cnc2ccc(-c3ccccc3OC(F)(F)F)nn12)c1cscn1

1. ≥ 350%
2. ≥ 350%

Kindly give each listed record's Emax.
1. O=C(Nc1cnc2ccc(-c3ccccc3F)nn12)c1cscn1
2. Cc1cc(-c2ccccc2C(F)(F)F)nn2c(C(=O)Nc3nccc(N4CCCC4)n3)cnc12
3. Cc1nc(C(=O)Nc2cnn3ccc(-c4ccccc4OC(F)(F)F)nc23)c(C)s1
4. COc1cc(NC(=O)c2c(C)nn3ccc(-c4ccccc4C(F)(F)F)nc23)ncn1

1: < 350%; 2: ≥ 350%; 3: ≥ 350%; 4: ≥ 350%

---

# measurement.target: UniProt:Q96EB6
# Sequence (Q96EB6 1-747): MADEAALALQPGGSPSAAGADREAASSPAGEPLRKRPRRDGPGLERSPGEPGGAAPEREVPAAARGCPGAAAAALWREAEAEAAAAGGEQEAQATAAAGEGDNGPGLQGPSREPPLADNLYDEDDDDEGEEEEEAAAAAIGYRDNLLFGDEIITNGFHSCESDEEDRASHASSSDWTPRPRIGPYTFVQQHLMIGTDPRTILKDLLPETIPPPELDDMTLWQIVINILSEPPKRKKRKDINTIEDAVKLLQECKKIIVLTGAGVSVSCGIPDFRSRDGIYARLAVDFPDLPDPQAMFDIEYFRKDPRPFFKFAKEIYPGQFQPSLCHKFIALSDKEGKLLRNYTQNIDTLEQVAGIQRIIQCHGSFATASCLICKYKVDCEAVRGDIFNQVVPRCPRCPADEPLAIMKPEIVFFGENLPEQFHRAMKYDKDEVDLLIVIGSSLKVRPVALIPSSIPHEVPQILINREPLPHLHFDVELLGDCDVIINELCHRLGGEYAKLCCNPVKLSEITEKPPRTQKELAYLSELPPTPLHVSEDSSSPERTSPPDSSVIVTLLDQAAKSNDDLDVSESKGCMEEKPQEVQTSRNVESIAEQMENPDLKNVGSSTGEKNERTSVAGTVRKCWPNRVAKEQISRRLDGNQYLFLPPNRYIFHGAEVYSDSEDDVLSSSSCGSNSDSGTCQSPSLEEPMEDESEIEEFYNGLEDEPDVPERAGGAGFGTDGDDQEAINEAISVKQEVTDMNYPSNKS
# protocol: Trp mass spectrometry assay of SIRT1 activity
# Type: biochemical
# setup.conditions: Trp peptide substrate; concentration giving 150% activation of SIRT1
parameter.measured: Trp EC1.5

Some solved cases for reference:
Cc1cc(NC(=O)c2cnc3ccc(-c4ccccc4OC(F)(F)F)nn23)nc(C)n1: B (EC1.5 1-25 μM)
Cc1cccc(C(=O)Nc2cnc3ccc(N4CC[C@H](F)C4)nn23)n1: B (EC1.5 1-25 μM)
O=C(Nc1cnc2ccc(-c3ccccc3C(F)(F)F)nn12)c1ncccc1F: A (EC1.5<1 μM)
Cc1nc2c(C)cc(-c3ccccc3OC(F)(F)F)nn2c1C(=O)Nc1ccncn1: A (EC1.5<1 μM)
Cc1cc(NC(=O)c2cnc3ccc(-c4ccccc4OC(F)(F)F)nn23)cc(C)n1: A (EC1.5<1 μM)

Kindly give each listed record's Trp EC1.5.
1. Cc1nc2c(C)cc(-c3ccccc3OC(F)(F)F)nn2c1C(=O)Nc1cccc(N2CC3(COC3)C2)n1
2. O=C(Nc1cncc(OC[C@H](O)CO)n1)c1cnc2ccc(-c3ccccc3C(F)(F)F)nn12

["A (EC1.5<1 μM)", "A (EC1.5<1 μM)"]
